Target: P2X purinoceptor 3 (Rattus norvegicus) (UniProt P49654)
Sequence (P49654 whole entry): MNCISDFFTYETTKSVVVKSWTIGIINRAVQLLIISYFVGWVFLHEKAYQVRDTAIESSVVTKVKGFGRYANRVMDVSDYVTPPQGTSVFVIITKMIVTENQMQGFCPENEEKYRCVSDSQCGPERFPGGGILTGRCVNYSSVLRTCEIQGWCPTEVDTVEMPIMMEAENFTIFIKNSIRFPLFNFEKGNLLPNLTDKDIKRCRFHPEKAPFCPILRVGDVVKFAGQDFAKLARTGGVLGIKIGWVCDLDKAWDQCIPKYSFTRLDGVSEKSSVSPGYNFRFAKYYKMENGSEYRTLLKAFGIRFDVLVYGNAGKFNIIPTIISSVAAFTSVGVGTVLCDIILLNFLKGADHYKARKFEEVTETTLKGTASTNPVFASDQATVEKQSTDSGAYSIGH
Experiment: Antagonist activity against rat P2X3 receptor expressed in CHOK1 cells assessed as inhibition of alpha,beta-meATP-induced calcium response incubated for 20 mins by Fluo-3AM dye based FLIPR assay
Format: functional, cell-based
Conditions: CHO-K1
The source made the active and inactive calls. The calls are words filed in the database; no cut-off is given here.
readoutName: inhibition

Illustrative cases are given below, each with its answer.
C#Cc1cc(Oc2cnc(N)nc2N)c(C(C)C)cc1OC | Active
COc1cc(C(C)C)c(Oc2cnc(N)nc2N)cc1C#Cc1cncn1C | Active
COc1cc(C(C)C)c(Oc2cnc(N)nc2N)cc1C#CCCC#N | Active
C#Cc1cc(Cc2cnc(N)nc2N)c(C(C)C)cc1OC | Active
COc1cc(C(C)C)c(Oc2cnc(N)nc2N)cc1C#CCCCO | Active

For the next question, use this compound.
Asked: # lookup: P2X purinoceptor 3 (Rattus norvegicus) (UniProt P49654) inhibition, key = C#Cc1cc(Oc2cnc(NCCCO)nc2N)c(C(C)C)cc1OC
Given back: Active
